target: Autotaxin (Homo sapiens) (UniProt Q13822); assay: Activity of human autotaxin in human […] cells assessed as effect on enzyme-mediated of FS3 hydrolysis at 10 uM; assay type: cell-based; design: scale not given: the % may be the effect or the level left
Mark Satisfied for Activity under 70%, Not satisfied if at or over.

As a guide, the following entries are already answered.
INSERT INTO results (compound, group) VALUES
  ('CCCCCCCCCCCCCCCCCCOP(=O)([O-])NCC[N+](C)(C)C', 'Satisfied'),
  ('CCCCCCCCC/C=C/CCCCCCCOP(=O)([O-])NCC[N+](C)(C)C', 'Not satisfied'),
  ('CCCCCCCCCCC(=O)OC[C@@H](O)COP(=O)([O-])OCC[N+](C)(C)C', 'Not satisfied'),
  ('CCCCCCCC/C=C\CCCCCCCCOP(=O)(O)OCC[N+](C)(C)C', 'Not satisfied'),
  ('CCCCCCCCCCCCCCCCCCOP(=O)([O-])OCC[N+](C)(C)C', 'Not satisfied'),
  ('CCCCCCCCCCCCCCCCOC[C@H](O)COP(=O)([O-])CCC[N+](C)(C)C', 'Not satisfied'),
  ('CCCCCCCCCCCCCCOC[C@@H](O)COP(=O)([O-])CCC[N+](C)(C)C', 'Not satisfied'),
  ('CCCCCCCCCCCCCCCCCCOC[C@@H](O)COP(=O)([O-])CCC[N+](C)(C)C', 'Not satisfied');

Hi there! Is Activity for CCCCCCCCCCCCCCCCCOC[C@@H](O)COP(=O)([O-])OCC[N+](C)(C)C below 70%, do you know?
Satisfied

Hi there! Is Activity for CCCCCCCCCCCCCCCCC(=O)OC[C@@H](O)COP(=O)(O)O below 70%, do you know?
Satisfied

Hi there! Is Activity for CCCCCCCCCCCCCCC(=O)OC[C@@H](O)COP(=O)([O-])OCC[N+](C)(C)C below 70%, do you know?
Satisfied

Hi there! Is Activity for CCCCCCCCCCCCOC[C@@H](O)COP(=O)([O-])CCC[N+](C)(C)C below 70%, do you know?
Not satisfied
